Attribution: patent US9233086B2

In this section we review reported Ki values for a set of substances.
Target: WDR5 (Homo sapiens (Human), UniProt P61964)
Assay: FP based competitive binding assay to WDR5
Conditions: read-out: Ki ± SD

| SUBSTANCE | Ki |
| --- | --- |
| Ac-ARAEVHL-NH2 [Ac-7mer, Ac-ARAEVHL-NH2] | 30 nM |

Let us move to another entry and its Ki.
// field: Ki; key: Ac-ARAEVH-NH2 [Ac-6mer, Ac-ARAEVH-NH2] ; value = 90 nM

---

The entries below come with measured pIC50 values attached.
Target: WDR5 (Homo sapiens (Human))
Assay: FP based competitive binding assay to WDR5
Settings: 4 nM WDR5Δ23, 0.6 nM 10mer-Thr-FAM tracer; read-out: IC50 ± SD
Where a SMILES comes first, the peptide text is derived from it.
The read-out pIC50 is expressed as -log10 of concentration in moles per litre.

| COMPOUND | pIC50 |
| --- | --- |
| C[C@H](N)C(=O)N[C@@H](CCCNC(=N)N)C(=O)N[C@H](C(=O)N[C@@H](CCCCN)C(=O)N[C@@H](CCC(N)=O)C(=O)N[C@H](C(=O)N[C@@H](C)C(=O)N[C@@H](CCCNC(=N)N)C(=O)N[C@@H](CCCCN)C(=O)N[C@@H](CO)C(N)=O)[C@@H](C)O)[C@@H](C)O [Compound H3-10mer, reference compound] | 4.15 |

Alright, here's another compound for you.
In plain terms, C[C@H](N)C(=O)N[C@@H](CCCNC(=N)N)C(=O)N[C@H](C(N)=O)[C@@H](C)O [Compound H3-3mer, H2N-ART-NH2, reference compound] (H-Ala-Arg-Thr-NH2) has a documented pIC50 of 3.90

---

Molecular target: WDR5 (Homo sapiens (Human))
Assay: FP based competitive binding assay to WDR5
Settings: 4 nM WDR5Δ23, 0.6 nM 10mer-Thr-FAM tracer; Ki calculated by equation of ref. 31; read-out: Ki ± SD
PROPERTY_LABEL: Ki (nM)
Hi! Could you send only the number? It should be in nM, unit omitted.

Ac-SARAEVHLRKS-NH2 [Ac-11mer] tested on WDR5 (Homo sapiens (Human)) gave Ki: 200

---

Target: WDR5 (Homo sapiens (Human), UniProt P61964)
Assay: FP based competitive binding assay to WDR5
Details: 4 nM WDR5Δ23, 0.6 nM 10mer-Thr-FAM tracer; Ki calculated by equation of ref. 31; read-out: Ki ± SD
Where a SMILES comes first, the peptide text is derived from it.
The entries below come with measured pKi values attached.
pKi here is simply -log10 of the concentration when that concentration is written in mol/L.

| COMPOUND | pKi |
| --- | --- |
| CC(=O)N[C@@H](C)C(=O)N[C@@H](CCCNC(=N)N)C(=O)N[C@@H](C)C(N)=O [Ac-3mer, Ac-ARA-NH2] (Ac-Ala-Arg-Ala-NH2) | 6.92 |

Per the records, this compound ( C[C@H](N)C(=O)N[C@@H](CCCNC(=N)N)C(=O)N[C@H](C(N)=O)[C@@H](C)O [Compound H3-3mer, H2N-ART-NH2, reference compound] (H-Ala-Arg-Thr-NH2) ) has pKi equal to 4.56

Measured pKi, CC(=O)N[C@@H](C)C(=O)N[C@@H](CCCNC(=N)N)C(=O)N[C@@H](C)C(=O)N(C)C [Δ2b, Ac-ARA-CONMe2] (Ac-Ala-Arg-Ala-NMe2) : 5.19

Reported pKi ( C[C@H](N)C(=O)N[C@@H](CCCNC(=N)N)C(=O)N[C@H](C(=O)N[C@@H](CCCC[N+](C)(C)C)C(=O)N[C@@H](CCC(N)=O)C(=O)N[C@H](C(=O)N[C@@H](C)C(=O)N[C@@H](CCCNC(=N)N)C(=O)N[C@@H](CCCCN)C(=O)N[C@@H](CO)C(N)=O)[C@@H](C)O)[C@@H](C)O [L3-10mer-K4Me3, H2N-ARTK(Me3)QTARKS-NH2, reference compound] ) = 4.81

---

# Lookup of reported IC50 keyed by entry
Target: WDR5 (Homo sapiens (Human))
Assay: FP based competitive binding assay to WDR5
Conditions: read-out: IC50 ± SD
Numbers only; they are read as nM.

| SUBSTANCE | IC50 / nM |
| --- | --- |
| Ac-ARAEVH-NH2 [Ac-6mer, Ac-ARAEVH-NH2] | 400 |

As a next step, examine the substance that follows.
For Ac-ARAEVHL-NH2 [Ac-7mer, Ac-ARAEVHL-NH2] the substance record lists IC50 as 160

---

// reported pIC50 for each item listed
Molecular target: WDR5 (Homo sapiens (Human), UniProt P61964)
Assay: FP based competitive binding assay to WDR5
Conditions: read-out: Binding Affinity to WDR5 (IC50 ± SD); Table 5 peptidomimetics
pIC50: −log10 of the molar value. Where a SMILES comes first, the peptide text is derived from it. [ ]: non-standard residue; d: D form. The star is where a group is joined. Isobutyryl = CC(C)C(=O)*; Deg = CCC(N)(CC)C(=O)O; NHBn = c1ccc(CN*)cc1; NHiPr = CC(C)N*

| COMPOUND | RESULT |
| --- | --- |
| CC(=O)N[C@@H](C)C(=O)N[C@@H](CCCNC(=N)N)C(=O)N[C@@H](C)C(=O)NC(C)C [Compound 7A] (Ac-Ala-Arg-Ala-NHiPr) | > 6.00 |

The recorded pIC50 for entry CC[C@H](NC(=O)[C@H](CCCNC(=N)N)NC(=O)C1(NC(C)=O)CCC1)C(=O)NC(c1ccccc1)c1ccccc1 [Compound 8B] equals > 6.00

Reported pIC50 of CCC(CC)(NC(=O)C(C)C)C(=O)N[C@@H](CCCNC(=N)N)C(=O)NCc1ccccc1 [Compound 11D] (Isobutyryl-[Deg]-Arg-NHBn) : > 4.52

---

Target: WDR5 (Homo sapiens (Human), UniProt P61964)
Experiment: FP based competitive binding assay to WDR5
Settings: 4 nM WDR5Δ23, 0.6 nM 10mer-Thr-FAM tracer; read-out: IC50 ± SD
pIC50: −log10 of the molar value. Where a SMILES comes first, the peptide text is derived from it. The star is where a group is joined. For = O=C*
# if value of pIC50 reaches 5, tag 1; if it stays below, tag 0

Take a look at these entries with their results.
| MOLECULE | CATEGORY |
| --- | --- |
| C[C@H](N)C(=O)N[C@@H](CCCNC(=N)N)C(=O)N[C@H](C(=O)N[C@@H](CCCC[N+](C)(C)C)C(=O)N[C@@H](CCC(N)=O)C(=O)N[C@H](C(=O)N[C@@H](C)C(=O)N[C@@H](CCCNC(=N)N)C(=O)N[C@@H](CCCCN)C(=O)N[C@@H](CO)C(N)=O)[C@@H](C)O)[C@@H](C)O [L3-10mer-K4Me3, H2N-ARTK(Me3)QTARKS-NH2, reference compound] | 0 |
| CC(=O)N[C@@H](C)C(=O)N[C@@H](CCCNC(=N)N)C(=O)N[C@H](C(N)=O)[C@@H](C)O [Ac-H3-3mer, Ac-ART-NH2] (Ac-Ala-Arg-Thr-NH2) | 1 |
| CC(C)C[C@H](NC(=O)[C@H](Cc1c[nH]cn1)NC(=O)[C@@H](NC(=O)[C@H](CCC(=O)O)NC(=O)[C@H](C)NC(=O)[C@H](CCCNC(=N)N)NC(=O)[C@H](C)N)C(C)C)C(=O)N[C@@H](CCCNC(=N)N)C(=O)N[C@@H](CCCCN)C(=O)N[C@@H](CO)C(N)=O [Compound H2N-10mer] | 0 |
| CC(=O)N[C@@H](C)C(=O)N[C@@H](CCCNC(=N)N)C(=O)N[C@@H](C)C(=O)N[C@@H](CCC(=O)O)C(=O)N[C@H](C(=O)N[C@@H](Cc1c[nH]cn1)C(=O)N[C@@H](CC(C)C)C(=O)N[C@@H](CCCNC(=N)N)C(=O)N[C@@H](CCCCN)C(=O)N[C@@H](CO)C(N)=O)C(C)C [Ac-10mer] | 1 |
| CC(=O)N[C@@H](C)C(=O)N[C@@H](CCCNC(=N)N)C(=O)N[C@@H](C)C(=O)N[C@@H](CCC(=O)O)C(N)=O [Ac-4mer, Ac-ARAE-NH2] (Ac-ARAE-NH2) | 1 |
| CC(=O)N[C@@H](C)C(=O)N[C@@H](CCCNC(=N)N)C(=O)N[C@H](C(=O)N[C@@H](CCCCN)C(=O)N[C@@H](CCC(N)=O)C(=O)N[C@H](C(=O)N[C@@H](C)C(=O)N[C@@H](CCCNC(=N)N)C(=O)N[C@@H](CCCCN)C(=O)N[C@@H](CO)C(N)=O)[C@@H](C)O)[C@@H](C)O [Ac-H3-10mer] | 1 |

Next:
Q) Item C[C@H](NC(=O)[C@H](CCCNC(=N)N)NC(=O)[C@H](C)NC=O)C(N)=O [CHO-3mer, CHO-ARA-NH2] (For-Ala-Arg-Ala-NH2) with pIC50 of 5 or above?
A) 0
